Origin of the recorded values: ChEMBL document CHEMBL2021863

- System: Pseudomonas aeruginosa
- test-method-notes: Antimicrobial activity against Pseudomonas aeruginosa ATCC 27953 after 24 hrs by two-fold serial dilution method
- Assay type: functional
- measurement-context: ATCC 27953, 24 h
Reported log10 MIC values follow for various compounds
property-measured: log10 MIC (log10 of the value in µg/mL)

compound	test-system	log10 MIC
Cc1ccc(-n2nnc(C3=NN(c4nc(-c5ccc(Cl)cc5)cs4)C(c4ccc(F)cc4)C3)c2C)cc1 (stereo not given)	Pseudomonas aeruginosa	1.22
Cc1ccc(-n2nnc(C(=O)/C=C/c3ccccc3)c2C)cc1	Pseudomonas aeruginosa	0.92
Cc1ccc(-n2nnc(C3=NNC(c4ccc(C#N)cc4)C3)c2C)cc1 (stereo not given)	Pseudomonas aeruginosa	0.92
Cc1ccc(-n2nnc(C3=NNC(c4ccccc4)C3)c2C)cc1 (stereo not given)	Pseudomonas aeruginosa	0.92
Cc1ccc(-n2nnc(C3=NNC(c4ccc(F)cc4)C3)c2C)cc1 (stereo not given)	Pseudomonas aeruginosa	0.92
Cc1ccc(-n2nnc(C3=NN(C4=NC(=O)CS4)C(c4ccc(F)cc4)C3)c2C)cc1 (stereo not given)	Pseudomonas aeruginosa	1.52
Cc1ccc(-n2nnc(C3=NN(C(=S)NC(=O)c4ccccc4)C(c4ccc(N5CCCCC5)cc4)C3)c2C)cc1 (stereo not given)	Pseudomonas aeruginosa	1.52
Cc1ccc(-n2nnc(C(=O)/C=C/c3ccc(N4CCCCC4)cc3)c2C)cc1	Pseudomonas aeruginosa	2.12
Cc1ccc(-n2nnc(C3=NN(C(=S)Nc4ccccc4)C(c4ccc(C#N)cc4)C3)c2C)cc1 (stereo not given)	Pseudomonas aeruginosa	1.82
Cc1ccc(-n2nnc(C(=O)/C=C/c3ccc(F)cc3)c2C)cc1	Pseudomonas aeruginosa	2.12
